- Test system: THRa:RXRa (NR concentration 90 nM, RXRa partner concentration 90 nM)
- method: PBM binding z-score (relative to random genomic background probes); higher = stronger binding; sequences stand for … in GC…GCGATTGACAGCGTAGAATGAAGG
Could you please report measured PBM binding z-score for the items listed next?
Answers are plain numbers.

>>> endpoint_result("AATACAGGGTCATCGTAGGCCAGAGAACGCACAG")
4.95

Would you mind listing PBM binding z-score for each of the following sequences?
1. CCGACTGGGTCAGAAAGGTTACCATACCATCCGG
2. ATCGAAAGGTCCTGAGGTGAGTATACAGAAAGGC
3. CCGACTGGGGCAAGGTTAGCATAACGCACAGCCA
4. TTACCAAGGTGAAACGTCGTTGATGCACGCCTTG
5. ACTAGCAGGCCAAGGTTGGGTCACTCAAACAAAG
6. TAGACTAGGTCAGATCGGGCCAGTATACGCTATA
7. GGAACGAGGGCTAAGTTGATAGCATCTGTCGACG
8. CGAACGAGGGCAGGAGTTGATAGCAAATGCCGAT

Result:
2.09
1.98
0.333
1.59
2.04
3.92
-0.638
0.403

Would you mind listing PBM binding z-score for each of the following sequences?
1. CGACCTAGGTCAAGGACAGTGAATCTCCGCACGC
2. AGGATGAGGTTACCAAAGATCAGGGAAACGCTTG

Result:
1. 3.39
2. 2.67

Data credit: the supplement of paper PMC6555819
